- System: MALME-3M melanoma
- Test summary: NCI tumour cell line growth inhibition, 48 h

- Compound: "O=C(/C=C/c1ccccc1)Oc1ccc(C(=O)/C=C/c2ccc(Cl)cc2)cc1"
  Cmp: ">"
  TGI (µM): 100
- Compound: "O=C(c1cccs1)N(C(=S)OCCOc1ccccc1)c1ccccc1"
  Cmp: "="
  TGI (µM): 69.9
- Compound: "CC1(c2nc3ccccc3[nH]2)CCC(C(=O)O)C(C)(C)O1 (stereo not given)"
  Cmp: ">"
  TGI (µM): 100
- Compound: "O=C1C(Cl)C2(CC(/C=C/c3ccccc3)=NN2c2cccc(S(=O)(=O)O)c2)N1c1nc2ccccc2s1 (stereo not given)"
  Cmp: "="
  TGI (µM): 33.3
- Compound: "O=[N+]([O-])c1ccc(C(=S)Nc2ccccc2)o1"
  Cmp: "="
  TGI (µM): 9.3

----------
- Test system: MDA-MB-435
- Test summary: NCI tumour cell line growth inhibition, 48 h
Is TGI at least 0.5 µM? Then met. If not, not met.

- Molecule: "CCOC(=O)C(C(=O)OCC)=C1NC2(c3ccccc3Nc3ccccc32)C(C#N)S1 (configuration not stated)"
  Measured on: "MDA-MB-435"
  Qualitative label: "met"
- Molecule: "O=[N+]([O-])c1cccc2nc3ccccc3c(NCCCNc3c4ccccc4nc4cccc([N+](=O)[O-])c34)c12"
  Measured on: "MDA-MB-435"
  Qualitative label: "not met"
- Molecule: "c1ccc2oc(-c3ccc(-c4nc5ccccc5o4)c4c3CC4)nc2c1"
  Measured on: "MDA-MB-435"
  Qualitative label: "met"
- Molecule: "O=C1C(Cl)C2(CC(/C=C/c3ccccc3)=NN2c2cccc(S(=O)(=O)O)c2)N1c1nc2ccccc2s1 (configuration not stated)"
  Measured on: "MDA-MB-435"
  Qualitative label: "met"
- Molecule: "O=C(N/N=C/c1ccc([N+](=O)[O-])cc1)Nc1ccc(C(=O)O)cc1"
  Measured on: "MDA-MB-435"
  Qualitative label: "met"
- Molecule: "N#CC1=C(/N=C/c2ccccc2)Oc2c(ccc3ccccc23)C1c1ccccc1 (configuration not stated)"
  Measured on: "MDA-MB-435"
  Qualitative label: "met"
- Molecule: "CC1(c2nc3ccccc3[nH]2)CCC(C(=O)O)C(C)(C)O1 (configuration not stated)"
  Measured on: "MDA-MB-435"
  Qualitative label: "met"
- Molecule: "CC(=O)C1=CN=C2C(=O)N(c3ccccc3)N(C)C12C (configuration not stated)"
  Measured on: "MDA-MB-435"
  Qualitative label: "met"
- Molecule: "O=C(NC1CCN(Cc2ccccc2)CC1)c1ccc(I)cc1"
  Measured on: "MDA-MB-435"
  Qualitative label: "met"
- Molecule: "COC1C(N)C(OC2C(Oc3cccc4c(O)c5c(=O)oc6ccc(C)c7c(=O)oc(c34)c5c67)OC(C)C(O)C2(C)O)OC(C)C1O (configuration not stated)"
  Measured on: "MDA-MB-435"
  Qualitative label: "not met"
- Molecule: "COC1C(O)C(CO)OC(OC2C(O)COC(OC3C(C)OC(OC4C(O[C@H]5CC[C@@]6(C)C(CC=C7[C@H]6CCC68C(=O)O[C@@](C)(CCCC(C)C)[C@H]6[C@@H](OC(C)=O)C[C@@]78C)C5(C)C)OCC(OS(=O)(=O)O)C4O)C(OC4OCC(O)C(O)C4O)C3O)C2O)C1O (some centres not stated)"
  Measured on: "MDA-MB-435"
  Qualitative label: "met"
- Molecule: "CC1=NN(c2nc(N)nc(/C(C#N)=C\\c3csc([N+](=O)[O-])c3)n2)C(C)(C)C1"
  Measured on: "MDA-MB-435"
  Qualitative label: "met"

Source of measurements: PubChem BioAssay (NCI)
